tested on: hGLP-1R (Homo sapiens, UniProt P43220)
Sequence (P43220 24-463): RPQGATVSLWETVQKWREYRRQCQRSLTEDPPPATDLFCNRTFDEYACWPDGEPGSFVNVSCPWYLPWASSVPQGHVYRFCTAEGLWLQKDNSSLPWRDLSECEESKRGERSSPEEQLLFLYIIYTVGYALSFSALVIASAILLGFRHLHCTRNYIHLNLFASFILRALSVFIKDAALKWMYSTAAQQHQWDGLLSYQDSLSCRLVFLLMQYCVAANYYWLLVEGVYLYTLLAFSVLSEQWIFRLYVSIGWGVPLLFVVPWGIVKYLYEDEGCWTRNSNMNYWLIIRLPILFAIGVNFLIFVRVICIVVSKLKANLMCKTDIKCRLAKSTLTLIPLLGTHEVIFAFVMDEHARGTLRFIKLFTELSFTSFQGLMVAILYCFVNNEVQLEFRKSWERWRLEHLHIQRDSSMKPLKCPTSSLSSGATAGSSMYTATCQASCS
assay text: cell-based or functional assay
Non-standard residues stand in square brackets, D forms with d. No end group written: not given here. Phe(4-CN) = N#Cc1ccc(C[C@H](N)C(=O)O)cc1; αMePhe(2-F) = C[C@](N)(Cc1ccccc1F)C(=O)O; Aib = CC(C)(N)C(=O)O
measurement type: Relative cAMP EC50 (nM)
Quick reminder: number only, in nM, skip the unit.

binder="YXQGTXTSDXXIXLDXKAQXEFIEXLVEGGPSSGEPPPESE (not fully specified; non-natural residues; lipidated Lys; C-terminal amide; synthetic construct; SITE 2: note = 2-Aminoisobutyric Acid; SITE 6: note = alpha-methyl-2-fluoro-L-phenylalanine; SITE 10: note = 3-(4-Pyridyl)-L-alanine; SITE 11: note = alpha-methyl-L-serine; SITE 13: note = alpha-methyl-leucine; SITE 16: note = L-ornithine; SITE 17: note = Lysine is chemically mo) [Example 1157]" reported_result=0.408

Complete the entry with Relative cAMP EC50 for YXQGTXTSDXSIXLDXKAQXEFIEXLQEGGPSSGAPPPSGS (non-natural residues, acylated Lys (AEEA-γGlu-C18 diacid), C-terminal amide; synthetic construct; SITE 2: note = 2-Aminoisobutyric Acid; SITE 6: note = alpha-methyl-2-fluoro-L-phenylalanine; SITE 10: note = 3-(4-Pyridyl)-L-alanine; SITE 13: note = alpha-methyl-leucine; SITE 16: note = L-ornithine; SITE 17: note = Lysine is chemically modified through conjugation of the epsil) [Example 643]
0.741

Complete the entry with Relative cAMP EC50 for YXQGTFTSDFSXXLDKKAQXAFIEYLLEXGPSSXAPPPSGS (Aib, Orn, αMeL, lipidated Lys, C-terminal amide; synthetic construct; SITE 2: note = 2-Aminoisobutyric Acid; SITE 12: note = L-ornithine; SITE 13: note = alpha-methyl-leucine; SITE 17: note = Lysine is chemically modified through conjugation of the epsilon-amino group of the Lysine side chain with (2-[2-(2-Amino-ethoxy)-ethoxy]-acetyl)-(gamma-Glu)) [Example 238]
2.71

Complete the entry with Relative cAMP EC50 for Y[Aib]QGT[αMePhe(2-F)]TSD[Phe(4-CN)]SILLDKQAQKAFIQYLLEGGPSSGEPPPSEG-NH2 (not fully specified (residue 20)) [Example 341]
1.62

Complete the entry with Relative cAMP EC50 for YXQGTXTSDXXIXLDXXAQXEFIEXLVEGGPSSGAPPPSGS (synthetic construct; SITE 2: note = 2-Aminoisobutyric Acid; SITE 6: note = alpha-methyl-2-fluoro-L-phenylalanine; SITE 10: note = 3-(4-Pyridyl)-L-alanine; SITE 11: note = alpha-methyl-L-serine; SITE 13: note = alpha-methyl-leucine; SITE 16: note = L-ornithine; SITE 17: note = Ornithine is chemically) [Example 1210]
0.375

Complete the entry with Relative cAMP EC50 for YXQGTFTSDFSKXLDKKAQXAFIEYLLEXGPSSGAPPPGGS (acylated Lys; Aib, αMeL non-natural; C-terminal amide; synthetic construct; SITE 2: note = 2-Aminoisobutyric Acid; SITE 13: note = alpha-methyl-leucine; SITE 17: note = Lysine is chemically modified through conjugation of the epsilon-amino group of the Lysine side chain with (2-[2-(2-Amino-ethoxy)-ethoxy]-acetyl)-(gamma-Glu)-CO-(CH2) 18-CO2H; SITE 20: n) [Example 43]
1.55

Complete the entry with Relative cAMP EC50 for YXQGTXTSDXXIXLDXKAQXXFIEXLAEGGPSSGEPPPE (synthetic construct; SITE 2: note = 2-Aminoisobutyric Acid; SITE 6: note = alpha-methyl-2-fluoro-L-phenylalanine; SITE 10: note = 3-(4-Pyridyl)-L-alanine; SITE 11: note = alpha-methyl-L-serine; SITE 13: note = alpha-methyl-leucine; SITE 16: note = L-ornithine; SITE 17: note = Lysine is chemically mo) [Example 437]
0.421

Complete the entry with Relative cAMP EC50 for YXQGTFTSDFSKXLDKKAQXAFIEYLLAGGPSSGEPPPSGS (non-natural residues, acylation, C-terminal amide; synthetic construct; SITE 2: note = 2-Aminoisobutyric Acid; SITE 13: note = alpha-methyl-leucine; SITE 17: note = Lysine is chemically modified through conjugation of the epsilon-amino group of the Lysine side chain with (2-[2-(2-Amino-ethoxy)-ethoxy]-acetyl)-(gamma-Glu)-CO-(CH2) 18-CO2H; SITE 20: n) [Example 8]
2.11

Complete the entry with Relative cAMP EC50 for YXQGTFTSDXSXXLDKKAQXAFIEYLIAGGPSSGAPPPSGSE (synthetic construct; SITE 2: note = 2-Aminoisobutyric Acid; SITE 10: note = 3-(4-Pyridyl)-L-alanine; SITE 12: note = L-ornithine; SITE 13: note = alpha-methyl-leucine; SITE 17: note = Lysine is chemically modified through conjugation of the epsilon-amino group of the Lysine side chain with (gamma-Gl)) [Example 1009]
2.1

Complete the entry with Relative cAMP EC50 for YXQGTFTSDFSKXLDKKAQXAFIEYLLAGGPSSGAPPPSEG (Aib, αMeL; acylated lysine; C-terminal amide; synthetic construct; SITE 2: note = 2-Aminoisobutyric Acid; SITE 13: note = alpha-methyl-leucine; SITE 17: note = Lysine is chemically modified through conjugation of the epsilon-amino group of the Lysine side chain with (2-[2-(2-Amino-ethoxy)-ethoxy]-acetyl)-(gamma-Glu)-CO-(CH2) 18-CO2H; SITE 20: n) [Example 10]
1.85

Complete the entry with Relative cAMP EC50 for Y[Aib]QGT[αMePhe(2-F)]TSDYSKLLDKIAQKAFIQYLIEGGPSSGEPPPSEG-NH2 (not fully specified (residue 20)) [Example 338]
1.22

Complete the entry with Relative cAMP EC50 for YXQGTFTSDFSRXLDKKAQXAFIEYLIEXSPSSGAPPPSGS (synthetic construct; SITE 2: note = 2-Aminoisobutyric Acid; SITE 13: note = alpha-methyl-leucine; SITE 17: note = Lysine is chemically modified through conjugation of the epsilon-amino group of the Lysine side chain with (2-[2-(2-Amino-ethoxy)-ethoxy]-acetyl)-(gamma-Glu)-CO-(CH2) 16-CO2H; SITE 20: n) [Example 806]
0.706

Complete the entry with Relative cAMP EC50 for YXQGTFTSDFSRXLDKKAQXAFIEYLLEGGPSSGAPPPGGS (Aib, αMeL; acylated Lys; C-terminal amide; synthetic construct; SITE 2: note = 2-Aminoisobutyric Acid; SITE 13: note = alpha-methyl-leucine; SITE 17: note = Lysine is chemically modified through conjugation of the epsilon-amino group of the Lysine side chain with (2-[2-(2-Amino-ethoxy)-ethoxy]-acetyl)-(gamma-Glu)-CO-(CH2) 18-CO2H; SITE 20: n) [Example 41]
2.2

Complete the entry with Relative cAMP EC50 for YXQGTXTSDXXIXLDXKAQXEFIEXLIEGGPSSGEPPPEGTGE (synthetic construct; SITE 2: note = 2-Aminoisobutyric Acid; SITE 6: note = alpha-methyl-2-fluoro-L-phenylalanine; SITE 10: note = 3-(4-Pyridyl)-L-alanine; SITE 11: note = alpha-methyl-L-serine; SITE 13: note = alpha-methyl-leucine; SITE 16: note = L-ornithine; SITE 17: note = Lysine is chemically mo) [Example 763]
0.302

Complete the entry with Relative cAMP EC50 for YXQGTFTSDFSXXLDKKAQXAFIEWLLEGGXSSGAPPPSGT (synthetic construct; SITE 2: note = 2-Aminoisobutyric Acid; SITE 12: note = L-ornithine; SITE 13: note = alpha-methyl-leucine; SITE 17: note = Lysine is chemically modified through conjugation of the epsilon-amino group of the Lysine side chain with (2-[2-(2-Amino-ethoxy)-ethoxy]-acetyl)-(gamma-Glu)) [Example 268]
3.14

Complete the entry with Relative cAMP EC50 for YXQGTXTSDXXIXLDXKAQXEFIEXLIEGGPPSXXPPPSGGGE (Lys acylated with AEEA-γGlu-C18 diacid; non-natural residues; C-amide; synthetic construct; SITE 2: note = 2-Aminoisobutyric Acid; SITE 6: note = alpha-methyl-2-fluoro-L-phenylalanine; SITE 10: note = 3-(4-Pyridyl)-L-alanine; SITE 11: note = alpha-methyl-L-serine; SITE 13: note = alpha-methyl-leucine; SITE 16: note = L-ornithine; SITE 17: note = Lysine is chemically mo) [Example 1199]
0.5

Complete the entry with Relative cAMP EC50 for YXQGTXTSDXXIXLDXKAQXEFIEXLIEGGPPSXEPPPSGGGE (non-natural residues; acylated Lys; C-terminal amide; synthetic construct; SITE 2: note = 2-Aminoisobutyric Acid; SITE 6: note = alpha-methyl-2-fluoro-L-phenylalanine; SITE 10: note = 3-(4-Pyridyl)-L-alanine; SITE 11: note = alpha-methyl-L-serine; SITE 13: note = alpha-methyl-leucine; SITE 16: note = L-ornithine; SITE 17: note = Lysine is chemically mo) [Example 1201]
0.888

Complete the entry with Relative cAMP EC50 for YXQATXTSDXXIXLDXKAQXEFIEXLVEGGPSSGAPPPSGS (synthetic construct; SITE 2: note = 2-Aminoisobutyric Acid; SITE 4: note = D-amino acid; SITE 6: note = alpha-methyl-2-fluoro-L-phenylalanine; SITE 10: note = 3-(4-Pyridyl)-L-alanine; SITE 11: note = alpha-methyl-L-serine; SITE 13: note = alpha-methyl-leucine; SITE 16: note = L-ornithine; SITE 17: n) [Example 1204]
0.338

Complete the entry with Relative cAMP EC50 for YXQGTXTSDXXIXLDXKAQXNFIEXLQEGGPSSGEPPPEGT (synthetic construct; SITE 2: note = 2-Aminoisobutyric Acid; SITE 6: note = alpha-methyl-2-fluoro-L-phenylalanine; SITE 10: note = 3-(4-Pyridyl)-L-alanine; SITE 11: note = alpha-methyl-L-serine; SITE 13: note = alpha-methyl-leucine; SITE 16: note = L-ornithine; SITE 17: note = Lysine is chemically mo) [Example 525]
0.426

Complete the entry with Relative cAMP EC50 for YXQGTFTSDFSKXLDKKAQXAFIEYLIEXGPSSGAPPPSGS (synthetic construct; SITE 2: note = 2-Aminoisobutyric Acid; SITE 13: note = alpha-methyl-leucine; SITE 17: note = Lysine is chemically modified through conjugation of the epsilon-amino group of the Lysine side chain with (2-[2-(2-Amino-ethoxy)-ethoxy]-acetyl)-(gamma-Glu)-CO-(CH2) 16-CO2H; SITE 20: n) [Example 797]
0.449

Data origin, for the record: patent US20240270821A1
